The reported measurements were obtained from patent US20220387487A1.

Test system: FMC63
Sequence (as listed by the source): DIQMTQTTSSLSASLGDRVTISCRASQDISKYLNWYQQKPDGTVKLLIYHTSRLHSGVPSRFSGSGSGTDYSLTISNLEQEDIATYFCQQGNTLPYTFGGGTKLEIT
Sequence (as listed by the source): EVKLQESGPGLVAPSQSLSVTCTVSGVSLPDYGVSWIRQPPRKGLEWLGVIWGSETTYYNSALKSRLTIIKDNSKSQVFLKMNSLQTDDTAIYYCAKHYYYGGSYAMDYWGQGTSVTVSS
Assay: CD19 variant binding to anti-CD19 antibody FMC63 (score)
Details: Table 1B, CD19 triple mutants
# FMC63 Binding Score per entry
Output spec: single numeric token, no unit.

>  <Molecule>
W62E/F64W/F66R: CD19 variant (protein) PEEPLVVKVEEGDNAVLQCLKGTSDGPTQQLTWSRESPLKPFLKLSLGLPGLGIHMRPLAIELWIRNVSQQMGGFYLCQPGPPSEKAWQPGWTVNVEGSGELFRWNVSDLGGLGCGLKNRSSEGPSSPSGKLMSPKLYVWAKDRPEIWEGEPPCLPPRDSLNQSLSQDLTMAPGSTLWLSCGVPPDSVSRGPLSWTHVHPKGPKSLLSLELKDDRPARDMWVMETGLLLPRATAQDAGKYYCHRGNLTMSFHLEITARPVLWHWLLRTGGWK

>  <Endpoint Label>
FMC63 Binding Score

>  <Recorded Measurement>
14.2

$$$$
>  <Molecule>
E224G/G226V/L228V: CD19 variant (protein) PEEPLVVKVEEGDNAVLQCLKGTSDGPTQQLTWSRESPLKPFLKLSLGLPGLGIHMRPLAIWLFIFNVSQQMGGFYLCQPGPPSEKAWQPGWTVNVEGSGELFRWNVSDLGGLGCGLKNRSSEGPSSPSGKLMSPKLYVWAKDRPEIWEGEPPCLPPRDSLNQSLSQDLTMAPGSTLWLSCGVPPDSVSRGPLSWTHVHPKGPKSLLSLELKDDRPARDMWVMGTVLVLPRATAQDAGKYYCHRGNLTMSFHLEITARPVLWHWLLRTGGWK

>  <Endpoint Label>
FMC63 Binding Score

>  <Recorded Measurement>
11.2

$$$$
>  <Molecule>
W62D/F64L/F66P: CD19 variant (protein) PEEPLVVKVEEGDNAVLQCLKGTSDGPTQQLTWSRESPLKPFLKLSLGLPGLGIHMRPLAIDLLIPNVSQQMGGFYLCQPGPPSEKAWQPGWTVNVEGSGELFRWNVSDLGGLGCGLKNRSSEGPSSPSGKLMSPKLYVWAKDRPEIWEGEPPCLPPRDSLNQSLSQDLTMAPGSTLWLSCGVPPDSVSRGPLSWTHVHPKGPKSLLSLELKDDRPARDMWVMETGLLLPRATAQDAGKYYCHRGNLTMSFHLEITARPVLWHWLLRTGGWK

>  <Endpoint Label>
FMC63 Binding Score

>  <Recorded Measurement>
16.3

$$$$
>  <Molecule>
W62T/F64R/F66Q: CD19 variant (protein) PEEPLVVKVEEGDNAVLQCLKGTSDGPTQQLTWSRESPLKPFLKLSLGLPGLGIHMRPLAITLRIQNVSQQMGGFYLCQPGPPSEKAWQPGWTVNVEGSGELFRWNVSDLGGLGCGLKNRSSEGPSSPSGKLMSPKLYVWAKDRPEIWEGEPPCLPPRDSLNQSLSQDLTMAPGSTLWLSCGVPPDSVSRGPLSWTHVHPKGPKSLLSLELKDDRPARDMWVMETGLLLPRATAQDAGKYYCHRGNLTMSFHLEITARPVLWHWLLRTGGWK

>  <Endpoint Label>
FMC63 Binding Score

>  <Recorded Measurement>
16.3

$$$$
>  <Molecule>
E224G/G226R/L228F: CD19 variant (protein) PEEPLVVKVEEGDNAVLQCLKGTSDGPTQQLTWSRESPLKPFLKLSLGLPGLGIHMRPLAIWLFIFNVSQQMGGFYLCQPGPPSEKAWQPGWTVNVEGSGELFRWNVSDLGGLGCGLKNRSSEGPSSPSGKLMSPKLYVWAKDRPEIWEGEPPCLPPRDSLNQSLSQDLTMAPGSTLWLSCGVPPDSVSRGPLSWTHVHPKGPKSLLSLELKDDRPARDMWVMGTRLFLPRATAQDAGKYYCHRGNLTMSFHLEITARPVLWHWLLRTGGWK

>  <Endpoint Label>
FMC63 Binding Score

>  <Recorded Measurement>
12.8

$$$$

Prompt: Query (molecule): W62Y/F64S/F66R: CD19 variant (protein) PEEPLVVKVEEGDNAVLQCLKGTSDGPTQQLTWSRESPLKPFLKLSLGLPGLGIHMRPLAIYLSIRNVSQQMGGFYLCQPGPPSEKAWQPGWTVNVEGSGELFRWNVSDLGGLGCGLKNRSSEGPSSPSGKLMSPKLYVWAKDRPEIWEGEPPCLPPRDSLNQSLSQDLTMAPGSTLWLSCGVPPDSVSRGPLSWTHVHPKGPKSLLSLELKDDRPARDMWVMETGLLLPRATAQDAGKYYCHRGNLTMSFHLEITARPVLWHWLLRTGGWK ; field requested: FMC63 Binding Score
Completion: 13.7

Prompt: What FMC63 Binding Score value was documented for this molecule, E224G/G226S/L228M: CD19 variant (protein) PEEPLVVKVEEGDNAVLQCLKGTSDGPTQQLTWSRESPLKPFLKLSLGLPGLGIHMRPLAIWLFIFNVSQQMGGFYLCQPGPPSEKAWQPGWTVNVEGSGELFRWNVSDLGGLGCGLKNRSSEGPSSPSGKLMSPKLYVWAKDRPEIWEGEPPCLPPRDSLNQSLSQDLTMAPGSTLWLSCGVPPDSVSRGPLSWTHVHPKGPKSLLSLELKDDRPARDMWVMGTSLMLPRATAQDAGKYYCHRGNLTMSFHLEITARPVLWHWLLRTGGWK ?
Completion: 13.8

Prompt: Reported FMC63 Binding Score for W62H/F64V/F66S: CD19 variant (protein) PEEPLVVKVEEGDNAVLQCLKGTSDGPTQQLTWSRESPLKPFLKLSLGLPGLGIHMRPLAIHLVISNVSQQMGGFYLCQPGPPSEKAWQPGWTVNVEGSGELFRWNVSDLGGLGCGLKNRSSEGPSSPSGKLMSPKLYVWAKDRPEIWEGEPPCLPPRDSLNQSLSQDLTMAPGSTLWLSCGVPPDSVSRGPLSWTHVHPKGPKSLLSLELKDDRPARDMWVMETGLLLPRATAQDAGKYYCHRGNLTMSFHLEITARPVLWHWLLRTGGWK : what is it?
Completion: 14.
